test system: SOX2; assay: Screen of a library of FDA-approved drugs for SOX2 antibody staining in A375 cells treated with PLX4720 and AZD6244; conditions: Z-test against negative controls (DMSO); single dose 5 uM
Cut-off 5 on z: below means Criterion met, at or above means Criterion not met.

Solved cases below.
- compound: "CC(=O)OCC(=O)[C@@]1(O)CC[C@H]2[C@@H]3CCC4=CC(=O)CC[C@]4(C)[C@@]3(F)[C@@H](O)C[C@@]21C [FLUDROCORTISONE ACETATE]"
  class-label: "Criterion met"
- compound: "COC(=O)Nc1nc2ccc(C(=O)c3cccs3)cc2[nH]1"
  class-label: "Criterion met"
- compound: "CC1(C)O[C@@H]2C[C@H]3[C@@H]4C[C@H](F)C5=CC(=O)C=C[C@]5(C)[C@H]4[C@@H](O)C[C@]3(C)[C@]2(C(=O)CO)O1 [FLUNISOLIDE]"
  class-label: "Criterion not met"
- compound: "Cc1cc(C(C)(C)CC(C)(C)C)ccc1OCCOCC[N+](C)(C)Cc1ccccc1.[Cl-] [METHYLBENZETHONIUM CHLORIDE]"
  class-label: "Criterion met"
- compound: "CC(=O)OCC(=O)[C@@]1(O)[C@H](OC(C)=O)C[C@H]2[C@@H]3CCC4=CC(=O)C=C[C@]4(C)[C@@]3(F)[C@@H](O)C[C@@]21C [TRIAMCINOLONE DIACETATE]"
  class-label: "Criterion met"
- compound: "Cc1cc2nc3ccc(N(C)C)cc3[s+]c2cc1N [TOLONIUM CHLORIDE]"
  class-label: "Criterion not met"
- compound: "CC(=O)OCC(=O)[C@@]1(O)CC[C@H]2[C@@H]3CCC4=CC(=O)C=C[C@]4(C)[C@H]3[C@@H](O)C[C@@]21C [PREDNISOLONE ACETATE]"
  class-label: "Criterion met"
- compound: "CCC(=O)O[C@]1(C(=O)CCl)[C@@H](C)C[C@H]2[C@@H]3CCC4=CC(=O)C=C[C@]4(C)[C@@]3(F)[C@@H](O)C[C@@]21C [CLOBETASOL PROPIONATE]"
  class-label: "Criterion not met"

Task item: Is 5 strictly greater than the compound's reported z? compound: CN(C)c1ccc(C(=C2C=CC(=[N+](C)C)C=C2)c2ccc(N(C)C)cc2)cc1
Reply: Criterion not met

Task item: Is 5 strictly greater than the compound's reported z? compound: O=c1[nH]c(=O)n([C@H]2C[C@H](O)[C@@H](CO)O2)cc1F
Reply: Criterion met

Task item: Is 5 strictly greater than the compound's reported z? compound: C[C@]12C=CC(=O)C=C1CC[C@H]1[C@@H]3C[C@@H](O)[C@](O)(C(=O)CO)[C@@]3(C)C[C@H](O)[C@@]12F
Reply: Criterion met

Task item: Is 5 strictly greater than the compound's reported z? compound: CCCOc1ccc2nc(NC(=O)OC)[nH]c2c1
Reply: Criterion not met

Task item: Is 5 strictly greater than the compound's reported z? compound: CC1(C)O[C@@H]2C[C@H]3[C@@H]4CCC5=CC(=O)CC[C@]5(C)[C@@]4(F)[C@@H](O)C[C@]3(C)[C@]2(C(=O)CCl)O1 [HALCINONIDE]
Reply: Criterion met

Task item: Is 5 strictly greater than the compound's reported z? compound: CC(C)COc1ccc(CNC(=O)N(Cc2ccc(F)cc2)C2CCN(C)CC2)cc1
Reply: Criterion not met

---

Exercise: for every item that follows, state its recorded cor. loess.
system: SOX2; experiment: Screen of a library of FDA-approved drugs for SOX2 antibody staining in A375 cells treated with PLX4720 and AZD6244; settings: A375 cells, 5 uM test drug with 1 uM PLX4720 and 0.5 uM AZD6244, 24 h; normalized and geometry-corrected (loess) signal
Answers are plain numbers.

- molecule: "COC(=O)Nc1nc2ccc(C(=O)c3cccs3)cc2[nH]1 [NOCODAZOLE]"
  quantity-kind: "cor. loess"
  obs-value: 0.5311

Hi! Can you tell me cor. loess for each of these molecules?
1. C[C@H]1O[C@@H](O[C@H]2[C@@H](O)C[C@H](O[C@H]3[C@@H](O)C[C@H](O[C@H]4CC[C@@]5(C)[C@H](CC[C@@H]6[C@@H]5CC[C@]5(C)[C@@H](C7=CC(=O)OC7)CC[C@]65O)C4)O[C@@H]3C)O[C@@H]2C)C[C@H](O)[C@@H]1O [DIGITOXIN]
2. CN(C)c1ccc2nc3ccc(=[N+](C)C)cc-3sc2c1 [METHYLENE BLUE]
3. C[C@H]1[C@H](OC(=O)CCC(=O)O)O[C@@H]2O[C@@]3(C)CC[C@H]4[C@H](C)CC[C@@H]1[C@@]24OO3 [ARTESUNATE]
4. COc1ccc(/C=C\c2cc(OC)c(OC)c(OC)c2)cc1OP(=O)([O-])[O-].[Na+].[Na+]
5. C[C@@H]1O[C@@H](O[C@@H]2C=C3CC[C@@H]4[C@H](CC[C@]5(C)[C@@H](c6ccc(=O)oc6)CC[C@]45O)[C@@]3(C)CC2)[C@H](O)[C@H](O)[C@H]1O [PROSCILLARIDIN A]
6. CC(=O)OCC(=O)[C@@]1(O)CC[C@H]2[C@@H]3CCC4=CC(=O)C=C[C@]4(C)[C@H]3[C@@H](O)C[C@@]21C [PREDNISOLONE ACETATE]
7. CCC(=O)O[C@]1(C(=O)CCl)[C@@H](C)C[C@H]2[C@@H]3C[C@H](F)C4=CC(=O)C=C[C@]4(C)[C@@]3(F)[C@@H](O)C[C@@]21C [Halobetasol Propionate]
8. CC(C)(C)CC(C)(C)c1ccc(OCCOCC[N+](C)(C)Cc2ccccc2)cc1 [BENZETHONIUM CHLORIDE]

Reply:
1. 1.488
2. 0.5193
3. 0.3246
4. 0.3981
5. 0.5083
6. 0.4697
7. 0.4055
8. 0.9288

Task item: Answer with the recorded cor. loess for the molecule listed here: CCC(=O)O[C@]1(C(=O)CCl)[C@@H](C)C[C@H]2[C@@H]3CCC4=CC(=O)C=C[C@]4(C)[C@@]3(F)[C@@H](O)C[C@@]21C [CLOBETASOL PROPIONATE]
Reply: 0.4021

---

Exercise: for every item that follows, state its recorded z.
test system: SOX2; test: Screen of a library of FDA-approved drugs for SOX2 antibody staining in A375 cells treated with PLX4720 and AZD6244; details: Z-test against negative controls (DMSO); single dose 5 uM
Give bare numbers.

Past entries and their recorded results:
- molecule: "O=c1[nH]c(=O)n([C@H]2C[C@H](O)[C@@H](CO)O2)cc1C(F)(F)F"
  measurement-target: "SOX2"
  z: 5.969
- molecule: "CCN(CC)C(=S)SSC(=S)N(CC)CC"
  measurement-target: "SOX2"
  z: 4.87
- molecule: "CCOC(=O)O[C@]1(C(=O)COC(=O)CC)CC[C@H]2[C@@H]3CCC4=CC(=O)C=C[C@]4(C)[C@H]3[C@@H](O)C[C@@]21C [PREDNICARBATE]"
  measurement-target: "SOX2"
  z: 4.425
- molecule: "COC(=O)Nc1nc2ccc(Sc3ccccc3)cc2[nH]1"
  measurement-target: "SOX2"
  z: 4.041

Now look at this one.
Task item: Report z under test system SOX2 for COc1cc2c(c(OC)c1OC)-c1ccc(OC)c(=O)cc1[C@@H](NC(C)=O)CC2 .
Reply: 5.86

---

tested on: SOX2; test: Screen of a library of FDA-approved drugs for SOX2 antibody staining in A375 cells treated with PLX4720 and AZD6244; conditions: Z-test against negative controls (DMSO); single dose 5 uM
quantity-kind: z
One number for each entry.

- compound: "CCCCC(CC)CN1CN(CC(CC)CCCC)CC(C)(N)C1 (centres unmarked) [HEXETIDINE]"
  z: 3.497
- compound: "C[C@H]1[C@@H](O)O[C@@H]2O[C@@]3(C)CC[C@H]4[C@H](C)CC[C@@H]1[C@@]24OO3 [ARTENIMOL]"
  z: 5.354

Hi! Can you tell me z for each of these compounds?
1. CCN1CCN(Cc2ccc(Nc3ncc(F)c(-c4cc(F)c5nc(C)n(C(C)C)c5c4)n3)nc2)CC1 [LY2835219]
2. C[C@@H]1C[C@@H]([C@H](O)CC2CC(=O)NC(=O)C2)C(=O)[C@@H](C)C1 [CYCLOHEXIMIDE]
3. O=C1c2ccccc2C(=O)C1c1ccc(Cl)cc1 [CHLORINDIONE]

Reply:
[4.755, 5.982, 3.839]

---

test system: SOX2; assay: Screen of a library of FDA-approved drugs for SOX2 antibody staining in A375 cells treated with PLX4720 and AZD6244; conditions: A375 cells, 5 uM test drug with 1 uM PLX4720 and 0.5 uM AZD6244, 24 h; normalized and geometry-corrected (loess) signal
Counter-ions that a name gives are not always drawn.
Tag: Fulfilled if measured cor. loess is not below 0.6, Not fulfilled if it is.

- molecule: "CCC(=O)OCC(=O)[C@@]1(OC(=O)CC)[C@@H](C)C[C@H]2[C@@H]3CCC4=CC(=O)C=C[C@]4(C)[C@@]3(F)[C@@H](O)C[C@@]21C [BETAMETHASONE 17,21-DIPROPIONATE]"
  class-label: "Not fulfilled"

Okay, next one:
Task item: I'd appreciate it if you could say whether CCCCN1CCCCC1C(=O)Nc1c(C)cccc1C (stereo not drawn) [BUPIVACAINE HYDROCHLORIDE] has cor. loess at least equal to 0.6.
Reply: Not fulfilled
